Can you tell me pIC50 for the items I'm about to list?
Biological target: 1-phosphatidylinositol 4,5-bisphosphate phosphodiesterase gamma-1 (Bos taurus)
Sequence (P08487 whole entry): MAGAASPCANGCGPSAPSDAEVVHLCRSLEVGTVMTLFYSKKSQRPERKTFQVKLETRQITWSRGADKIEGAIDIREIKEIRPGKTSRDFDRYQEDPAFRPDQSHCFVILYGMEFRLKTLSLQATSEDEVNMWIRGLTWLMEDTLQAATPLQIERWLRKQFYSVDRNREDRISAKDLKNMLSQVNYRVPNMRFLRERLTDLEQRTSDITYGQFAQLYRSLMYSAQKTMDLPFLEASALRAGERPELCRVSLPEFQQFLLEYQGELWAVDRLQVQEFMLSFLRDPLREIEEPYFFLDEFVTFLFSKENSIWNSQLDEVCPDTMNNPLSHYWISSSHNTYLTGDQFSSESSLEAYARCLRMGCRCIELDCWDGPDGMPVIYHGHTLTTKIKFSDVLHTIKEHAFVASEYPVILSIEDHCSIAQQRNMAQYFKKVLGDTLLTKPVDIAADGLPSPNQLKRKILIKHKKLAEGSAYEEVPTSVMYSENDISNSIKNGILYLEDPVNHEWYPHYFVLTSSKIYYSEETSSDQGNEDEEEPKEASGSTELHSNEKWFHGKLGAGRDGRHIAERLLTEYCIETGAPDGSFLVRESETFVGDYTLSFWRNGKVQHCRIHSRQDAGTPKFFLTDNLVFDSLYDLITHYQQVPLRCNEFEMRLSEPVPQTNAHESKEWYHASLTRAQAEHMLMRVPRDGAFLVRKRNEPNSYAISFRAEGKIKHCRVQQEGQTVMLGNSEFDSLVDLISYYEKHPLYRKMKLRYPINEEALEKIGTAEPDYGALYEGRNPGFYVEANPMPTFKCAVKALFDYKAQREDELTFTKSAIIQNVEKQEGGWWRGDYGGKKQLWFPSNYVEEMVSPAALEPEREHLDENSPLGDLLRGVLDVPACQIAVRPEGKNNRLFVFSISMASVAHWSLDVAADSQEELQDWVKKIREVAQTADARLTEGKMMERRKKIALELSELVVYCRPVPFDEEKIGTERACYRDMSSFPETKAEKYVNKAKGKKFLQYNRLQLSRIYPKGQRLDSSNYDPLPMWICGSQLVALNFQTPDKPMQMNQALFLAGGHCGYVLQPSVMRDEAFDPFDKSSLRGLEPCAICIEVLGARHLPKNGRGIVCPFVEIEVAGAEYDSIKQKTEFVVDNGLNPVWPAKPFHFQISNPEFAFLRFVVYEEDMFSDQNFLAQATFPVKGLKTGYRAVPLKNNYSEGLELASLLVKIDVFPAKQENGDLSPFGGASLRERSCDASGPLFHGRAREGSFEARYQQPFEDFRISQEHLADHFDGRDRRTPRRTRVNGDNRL
pIC50: −log10 of the molar value.

Reference set, count: 2
> print(dat)
                            smiles.code                           subject.of.test  quantity.measured  result
1  CCCCCC/C=C\CCCCCCCc1cccc(O)c1C(=O)OC  1-phosphatidylinositol 4,5-bisphosphate phosphodiesterase gamma-1 (Bos taurus)              pIC50  < 3.16
2              CCCCCCCCCCCCCc1cccc(O)c1  1-phosphatidylinositol 4,5-bisphosphate phosphodiesterase gamma-1 (Bos taurus)              pIC50    4.24

Q: pIC50 for CCCCCC/C=C\CCCCCCCc1cc(OC(C)=O)cc(OC(C)=O)c1 ?
A: < 3.21

Origin of measurements: ChEMBL document CHEMBL1150918
